Data provenance is patent US20220324862A1.

assayed target: protein-protein interaction between SOS1 and KRAS-G12D (Homo sapiens)
Construct: The purified GST-SOS1 catalytic domain (residues 564-1049) was first diluted in assay buffer; made in house; host or cells: E. coli BL21 (DE3) for SOS1; E. coli BL21 carrying a BirA plasmid for KRAS-G12D
experiment summary: HTRF Based Protein-Protein Interaction Assay
Format: binding
measurement setup: HTRF; GST-SOS1 2.5 nM, KRAS-G12D 100 nM, GDP 10 uM; read-out: IC50 value, inhibition of SOS1/KRAS-G12D protein-protein interaction
pIC50: −log10 of the molar value.
property name: pIC50

compound: C#C[C@@H](Nc1nc(C)nc2cc(=O)n(C3CC4(C3)CN(C)C4)cc12)c1cccc(C(F)F)c1C [Compound 38]
value reported: > 7.00

compound: C#C[C@@H](Nc1nc(C)nc2cc(=O)n(C3(C(F)F)CC3)cc12)c1cccc(Br)c1F [Compound 41]
value reported: 6.70 to 7.00

compound: C#C[C@@H](Nc1ncnc2c1cc(C1(OC)CCN(C(C)=O)CC1)c(=O)n2C)c1cccc(C(F)F)c1F [Compound 48]
value reported: 6.70 to 7.00

API: the following record is the query input.
Provide pIC50, tested on protein-protein interaction between SOS1 and KRAS-G12D (Homo sapiens), for C#C[C@@H](Nc1nc(C)nc2cc(=O)n(C34CC(C3)C4)cc12)c1cccc2c1CCC2(F)F [Compound 2] .
> 7.00

---

assayed target: protein-protein interaction between SOS1 and KRAS-G12D (Homo sapiens, UniProt Q07889)
Construct: The purified GST-SOS1 catalytic domain (residues 564-1049) was first diluted in assay buffer; made in house; host or cells: E. coli BL21 (DE3) for SOS1; E. coli BL21 carrying a BirA plasmid for KRAS-G12D
Sequence (Q07889 564-1049): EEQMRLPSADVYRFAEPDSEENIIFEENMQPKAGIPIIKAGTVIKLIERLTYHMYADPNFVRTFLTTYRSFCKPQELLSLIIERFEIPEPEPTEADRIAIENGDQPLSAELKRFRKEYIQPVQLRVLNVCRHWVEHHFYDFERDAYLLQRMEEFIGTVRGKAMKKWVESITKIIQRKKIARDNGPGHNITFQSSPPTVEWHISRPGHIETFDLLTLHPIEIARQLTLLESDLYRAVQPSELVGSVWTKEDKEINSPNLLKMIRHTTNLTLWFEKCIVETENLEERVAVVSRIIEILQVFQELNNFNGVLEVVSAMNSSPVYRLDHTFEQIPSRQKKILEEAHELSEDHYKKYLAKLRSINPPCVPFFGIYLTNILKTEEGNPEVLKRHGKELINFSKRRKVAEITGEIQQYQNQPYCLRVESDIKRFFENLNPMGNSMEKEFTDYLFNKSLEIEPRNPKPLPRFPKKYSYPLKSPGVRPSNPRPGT
experiment summary: HTRF Based Protein-Protein Interaction Assay
Assay type: binding
measurement setup: HTRF; GST-SOS1 2.5 nM, KRAS-G12D 100 nM, GDP 10 uM; read-out: IC50 value, inhibition of SOS1/KRAS-G12D protein-protein interaction
Source text: A KRAS-G12D and SOS1 binding/interaction assay was designed to measure the interaction between KRAS-G12D and SOS1 proteins. Utilizing HTRF (Homogeneous Time-Resolved Fluorescence) technology, the assay enabled simple and rapid characterization of compound and protein interaction in a high throughput format. This assay was used to examine potency of the compounds in inhibiting the protein-protein interaction between SOS1 and KRAS-G12D. […]
property name: IC50

Below: 5 compounds and their reported IC50.
compound: C#C[C@@H](Nc1nc(C)nc2cc(=O)n(C3(C#C)CC3)cc12)c1cccc(C(F)F)c1F
assayed target: protein-protein interaction between SOS1 and KRAS-G12D (Homo sapiens, UniProt Q07889)
IC50: < 100 nM
--
compound: C#C[C@@H](Nc1nc(C)nc2cc(=O)n(C3(C(F)F)CC3)cc12)c1cccc(C#N)c1F
assayed target: protein-protein interaction between SOS1 and KRAS-G12D (Homo sapiens, UniProt Q07889)
IC50: < 100 nM
--
compound: C#C[C@@H](Nc1ncnc2c1cc(C1(F)CCN(C(C)=O)C1)c(=O)n2C)c1cccc(C(F)F)c1F (some centres unmarked)
assayed target: protein-protein interaction between SOS1 and KRAS-G12D (Homo sapiens, UniProt Q07889)
IC50: 100 to 200 nM
--
compound: C#C[C@@H](Nc1nc(C)nc2cc(=O)n(C3CC(F)(F)C3)cc12)c1cccc(C(F)(F)F)c1C
assayed target: protein-protein interaction between SOS1 and KRAS-G12D (Homo sapiens, UniProt Q07889)
IC50: < 100 nM
--
compound: [2H]C([2H])([2H])n1c(=O)c(C2(OC)CCN(C(C)=O)CC2)cc2c(N[C@H](C#C)c3cccc(C(F)(F)F)c3C)nc(C)nc21
assayed target: protein-protein interaction between SOS1 and KRAS-G12D (Homo sapiens, UniProt Q07889)
IC50: 100 to 200 nM

Identify measured IC50 associated with "C#C[C@@H](Nc1nc(C)nc2c1cc(C1(OC)CCN(C(C)=O)CC1)c(=O)n2C)c1cccc(C(F)(F)F)c1C"
< 100 nM

Identify measured IC50 associated with "C#C[C@@H](Nc1nc(C)nc2cc(=O)n(C3(C(F)F)CC3)cc12)c1cccc(C(F)(F)F)c1C"
< 100 nM

Identify measured IC50 associated with "C#C[C@@H](Nc1nc(C)nc2cc(=O)n(C3CCC3)cc12)c1cccc(C(F)(F)F)c1C"
< 100 nM

Identify measured IC50 associated with "C#C[C@@H](Nc1nc(C)nc2cc(=O)n(C3(C#N)CC3)cc12)c1cccc(C(F)(F)F)c1C"
< 100 nM

Identify measured IC50 associated with "C#C[C@@H](Nc1nc(C)nc2c(F)c(=O)n(C3(C(F)F)CC3)cc12)c1cccc(C(F)(F)F)c1C"
< 100 nM

Identify measured IC50 associated with "C#C[C@@H](Nc1nc(C)nc2cc(=O)n(C3(C#C)CC3)cc12)c1cccc(C(F)(F)F)c1C"
< 100 nM

Identify measured IC50 associated with "C#C[C@@H](Nc1nc(C)nc2c1cc(C1(F)CCN(C(C)=O)CC1)c(=O)n2C)c1cccc(C(F)(F)F)c1C"
< 100 nM

Identify measured IC50 associated with "C=C[C@@H](Nc1nc(C)nc2cc(=O)n(C3(C)CC3)cc12)c1cccc(C(F)(F)F)c1C"
< 100 nM

Identify measured IC50 associated with C#C[C@@H](Nc1nc(C)nc2cc(=O)n(C(C)C(F)(F)F)cc12)c1cccc(C(F)(F)F)c1C (mixture of isomers)
< 100 nM
